# protocol-details: label from the status in PepcDB records
experimental-endpoint: protein production

Some sequences with known protein production results, for comparison:
MRHISPEELIALHDANISRYGGLPGMSDPGRAEAIIGRVQARVAYEEITDLFEVSATYLVATARGHIFNDANKRTALNSALLFLRRNGVQVFDSPELADLTVGAATGEISVSSVADTLRRLYGSAELEHHHHHH; not failed
SLDPVSQSKLEQAIHDQIPQLAKTAGKDLEAAAIAVDRHSGEIRAMVGGKRTGYDGFNRVLNASRQIGSLVKPAVYLTALAHPDQYNLATTLEDKPLTLKGSEGSAWTPRNYDRQYRGEVPLYLALAQSLNVPTVALGMKLGIDQVSATLGKLGVNRDEIRPVPSMLLGSFSLTPYQVAQMYQTLTNSGKKAPLSALRSVLDLEGNVLYESLPRVSQAVDQQAAWLTTYAMKQGVQEGTGRYLNAQFSSAALAGKTGTTNDNRDSWFVGVDGREVTTIWLGRDDNQPTKLTGASGALRVYAQYLKYRIPEKLQLPW; failed
MSLENKENLVVIDLAIAEDSIQKKNIVYDKNGQNHFDVISAFIKSIRGSDPDATLYWLANMVEAGEDPNFIFRRLLISACEDIGLADPNAIVVVQSCCDAFDRVGFPEGLFFLSQASLYLAISPKSNSTKSIFKAMEAIKATNVSLVPNHLKNNASNYLNPHNYQGKWLQQEYLPTDLQGIKFWKPKDSGWEKNKYEDLPKKQKSEGHHHHHH; not failed
SSEANSNSEFQTFIEQENQKAAIQAAISKLTETCWDKCVGKPGSKLDRAESECIANCAERFLDSSSFIMQRLMKKQ; not failed
MASLISFWLFFALSLLQPQQRQFLASKPWQDWLLDGVSLGIQGAIIPLLQLLLVINFYSLIIPHWQHSFNLFAGGQFLLGFVAIDYVYYWSHRALHSKLLFPIHQVHHTVSQMDMVSCARNTFWSSLFLPYVWLNSLIIYLLHDARGYILAISCTYLLDLWRHSSLIINKKCWLHDCLNSWLILPQDHGLHHHQIGKGNFGANLKLWDKIHGTYLKNTLPNQLSISSGMGIKLELTLWQKLFWPLT; failed
MFYTIEELVQQADRDYQGNIAELMIATETELSGRDRSEILELMTRNLEVMKDSVQTGLSPEKSPTGLTGGDAAKLDAYIKRGKTLADSAVLGAARNAMAVNESNAKMGLVCATPTAGSAGCLPAVLTVAIEKLGLNESQQLDFLFTAGAFGLVIANKASISGAEGGCQAEVGSASAMAAAAITMAAGGTPFQASQAICFVLKNMLGLICDPVAGLVEVPCVKRNAMGASFALVAADMALAGITSAIPVDQVVDAMYQVGSAMPTAFRETAEGGLAATPKGKALAKEIFG; not failed

Okay, next one:
Could you tell me which protein production is on file for MMQIDSIEIGGKVYQFFKSDLGNAPLLFIKGSKGYAMCGYLNMETSNKVGDIAVRVMGVKTLDDMLSAKVVEASQEAQKVGINPGDVLRNVIDKL ?
not failed

* * *

# protocol-details: label from the status in PepcDB records
experimental-endpoint: protein production

Observe how each entry below is paired with its result.
MSNKPASQQTRLTDWLIFLAVPFFFSSNVIFGRGVVGEVSPFIAAFIRWMGSTLIIAPFMIADWRNCLAFVRDKMLLWLVLGILGMGICGGVVYWGLTMTTAANGTLIYTTSSLFIILFQRIFQGRPIRKLEVAGMVIAFAGVAAIVLKGDISALRHMNFNIGDFAILTAAIAFAIYSLLLRDPAARQMASFSLFGLIAFSGALVLLPPAALELAQGGMLPATGAAWAKIGGIILFASLLAFYCFTHTVRVFGPATAGITLYMMPPVSILMATIFLGETFETYHAIGIVLVTGGVILATAPIGRKR; failed
MMNLALQQRISELGPWFQNMRFGEIETAPDHFLGDYPAFKWEGFKHVVPKDLEGCSVLDIGCNAGFYALEMKRRNAGRVLGIDSDPRYLEQARFAADHFGLDVEFRQMSVYEVSKLGERFDLVLFMGVLYHLRHPLLALDLLYEHVVADLMLFQCLQRGEERIAKLEEDYDFSEWKIFDRSDFPKLFFVEERFAADPTNWFIPNKAAVEAMLRSSGFVIEANPEREVYLCRRGRRPYKVEPPPG; failed
MSINTKENIDAIFEKLESFLKSKTVIGEPIKIGETTIIPFIDITFGLGTGGGGGKDEKGNDGTGSGAGAGAKISATAVLVIKGEQVELLPIKKAGGLEKLLDMVPELEHHHHHH; not failed
MRMTLRQLRIFNEVCDLRSYSRAAEEMSLTQPAVSLQVRQLEELIGQPLFEYVGKKLYMTEAAEALQLASRDIFGRLESLDMQLSDMQGSLQGQLKLAVESSCKYFIPHLFAAFKRQHPEVSLSLMVVNRAQIIRRLSDNRDDLVVMSAVPLDMGLEFLPFLNNPIVAVAPPDHPLSSRETLSLKDLEPWPLLTRETGSGTRRACEEYFKEKRVHFTQTLEVSSSEAQRECVVAGLGLAMLTRHAVCQELATGTLVELPVAELPLYRSWCVVQARDKRLSPVAHAFLAFIRTERAQISQLVERFDGRPQAV; failed
MGSSHHHHHHSSGRENLYFQGGAGTSAAMRQATSPKTILEYIINFFTCGGIRRRNETQYQELIETMAETLKSTMPDRGAPLPENIILDDMDGCRVEFNLPGENNEAGQVIVRVSKGDHSETREIPLASFEKICRALLFRCEFSLPQDSVILTAQGGMNLKGAVLTGANLTS; not failed

Kindly consider the entry below.
Returns the measured protein production for the input sequence. Input: MSQQPESDRTEGDLRNTGMELKHERTWDYELDRIVDAVEERDAMKVGLQFPEGLKRRAGRVADDLRRLLPDETTVLLSGQPCYGACDLDTYMMRRTDVFVHFGHSPMKESDKIIYVPLFSNVEVTPIMEEARAELAAPEEDDAVGLVTTAQHMNRFDEMQAWLEERGYTVETRRGDERLTHEGQVLGCNYASADVDADQILYVGGGKFHPLGLAMEHPDKKVIIADPVNNAVHVADTEQFMKQRYAAVHKAMDAEEWGVIFCTKIGQGRWDTAEEIVEANDNAYLITMDEVTPDRLTNFGFDAYVNTGCPRITTDDGPQFKQPMLTPGEYKIAIGEKPMDSLSFDTFHGTW
failed

* * *

# protocol-details: label from the status in PepcDB records
experimental-endpoint: protein production

Check out these entries, answers already filled in.
MVLFHLIKKESLQIFRNRTALLMMVIFPILMIVILSFAFKSSFNTATTVPKLTIRYQLEGEKTDYQKNFLAFLKVLNQKLHLETKPSNSLEKDRQRVSEGALTAVLEVKKNQTIKVITNNINQQNADLINMLVKNYVDNAKTYDSIAALYPQQLNHIRKRSVDYVKVSSIQTSKGMTSADYYAISMFTMITFYSMMSAMNLVLSDRQQRITNRIHLTGVSPSFLVFGKLIGAMLATTVQLSLLYIFTRFVLRVNWGTNEWMLIGITASLVYLSVAIGIGLGISIKNEAFLTVASNTIIPIFAFLGGSYVPLTTLHSSIINQLSNISPIKWVNDSLFYLIFGGQYNPIPVTLIVNISIGTIFIILALIGMRKQVTT; failed
MIKKNNLILIKLKNSMKKMIKIAFVAAFVAIAGYGVYTNQKSETLSDLTLANVEALAGGESGGYYCCSPYSYECYRIVGGGIVHGLRLPLPC; failed
MKTSRECFSSAGGSPMIRATSARSPPVPQSALPIGSLLSAPRPAFTETEAQGLARTHFGLDGTALPLTSERDQNFRLATPRGAFVLKIANAAEPRGVTECQTLALLHLEAVAPGLPVPRVIRTREGAPWTELAGGNLLRLLTWVEGEPLWRARRGAAQRRAVGLCLGGIAAALADFSHPSADHELLWDIRHAARLRALLPAIPDARTAVLAERVLDRFETAVAPRLADLPWQVVHNDMNPHNIMVDPANADRVAGVIDFGDLVRTARVCDLAVAGSYQVDPGDPAGTLADLVAGYHAANPLRPEEVELLPDLVAARMVTTIAIASARAAQQPDNAPYILRNLPASAAGLEALTALAPGAAAAALLRATEAA; failed
MDADNTAHLIYLSLLGAALVFWFISHNRASLGKTLQMALAWVFIFVGVIAVVGLWGDIRSTVAGTPRISVSENRVEIPRSPDGHYYATLIIEDKPLRFLVDTGASQVVLSHADAERLGIDTSALNYFGRAYTANGEVRTAPVKLGRVQLGGFTDQGVTAWVNEGEMSESLLGMDYLQRFRSIEIAGGTLVLAR; failed

Batch of 7 sequences: report protein production for each.
1. MSVTFSYLAETDYPVFTLGGSTADAARRLAASGCACAPVLDGERYLGMVHLSRLLEGRKGWPTVKEKLGEELLETVRSYRPGEQLFDNLISVAAAKCSVVPLADEDGRYEGVVSRKRILGFLAERIHSGEGGLTMEIEVPPTGAKLSEIIETIEKNDASILSFTSWTTGEGRIIFFRVATHDFFRLVRNMENYGYLIRYHSAFPNAGYDELREKALEFIHYMDM
2. MPKLPPLSLYIHIPWCVQKCPYCDFNSHAQKSDIPEQDYIYHLLQDLQADLQRFKDSIQQRKLHSIFIGGGTPSLFSAESIAYLLKEIKKQIDFEDNIEITLEANPGTVEAERFKGYVSAGIMRISMGIQSFNDDKLQRLGRIHNAAEAKSAVNLAKVSGLKSFNLDLMHGLPNQTLEEALDDLRQAIELSPPHISWYQLTIEPNTMFAYRPPKLPDDDALWDIFEQGHQLLTMAGYQQYETSAYAKAGFQCKHNLNYWRFGDYLAIGCGAHGKLTFPTGEITRFSKTKHPKGYLRGEYLYEEKNVPKIDRPFEFFMNRFRLLEAVPKQEFEDYTGLSQSAVKNQIDFAIQQNYIVENADSWQITEHGKLFLNELLELFLTEELEHHHHHH
3. MVVVCASHIQPAIICRFTWLRFLMEIILIRHGKPTSANNPVLNAVDFTKWVRRYNFSDVSTNSRPDSILDEYKSHYIVSSDLERAIHSASIYTGQSPELTSKLYREMEIPRYKFPLRFKAMTWVYINRAFWMLGLKGSFESYRQAKIRAELASDHLVELAREQDKVILFGHGYLNLHIRRSLIKKGWKLNSKSNGFWGISSLEG
4. PASGVRPAEAADLAAVAAYDSACSPADRPRFLEHWLAGPGHRTFVRLVDGRLTGYGVVRPALDSLRVGPLFADSAEDARALFTALTADAGEIAMDIPETNTAAVALAREAGLTPSFETARMYTGPVRPFAADRVYGITSLELG
5. TSVKEFAMKHDHFVVQSPDKPAQQLLLLFHGVGDNPVAMGEIGSWFAPLFPDALVVSVGGAEPSGNPAGRQWFSVQGITEDNRQARVDAIMPTFIETVRYWQKQSGVGANATALIGFSQGAIMALESIKAEPGLASRVIAFNGRYASLPETASTATTIHLIHGGEDPVIDLAHAVAAQEALISAGGDVTLDIVEDLGHAIDNRSMQLALDHLRYTIPKHY
6. SHRSAAAFVDAERELFVRDQPIGPDDRVLAGLSVAFDASCEEMWLAWGHGACLVPAPRSLVRTGLDLGPWLISRDISIVSTVPTLAGMWPAEALDNVRLLILGGEACSAELVARVASSRREVWNTYGPTEATVVTCAARLEAGQPVAIGLPLAG
7. MHEKTKFRLHSHDVPYGSGSGQQSVTGFPGVVDSNSYWIVKPVPGTTEKQGDAVKSGATIRLQHMKTRKWLHSHLHASPISGNLEVSCFGDDTNSDTGDHWKLIIEGSGKTWKQDQRVRLQHIDTSGYLHSHDKKYQRIAGGQQEVCGIREKKADNIWLAAEGVYLPLNESSK

["not failed", "not failed", "failed", "failed", "failed", "failed", "not failed"]

Okay, here is my list. What is protein production for each of these?
1. MSLNGSSIIEFEDMTWSQQVEDSKKPVVVMFYSPACPYCKAMEPYFEEYAKEYGSSAVFGRINIATNPWTAEKYGVQGTPTFKFFCHGRPVWEQVGQIYPSILKNAVRDMLQHGEECIRKSTPVGQDITGYVEGHHHHHH
2. MEFTAEQLSQYNGTDESKPIYVAIKGRVFDVTTGKSFYGSGGDYSMFAGKDASRALGKMSKNEEDVSPSLEGLTEKEINTLNDWETKFEAKYPVVGRVVS
3. MFVRRFEEVLALPTAMTALLGCQLLGELIVRALHLPIPGPVLGLLLLLAWLLLGTTVTLPVSSSLPEVARGLLNHMSLLFIPAGVGIILHGQTLADQWLPISVSLFGSTALALIATALTFRAVCKIMERSKAKKEGGR

not failed
not failed
failed
